biological target: RIPK2 enzyme (Homo sapiens, UniProt O43353); construct: purchased Carna 09-128; experiment: RIPK2 inhibition (ADP-Glo Kinase Assay); format: biochemical; conditions: RIPK2 5 nM, ATP 150 μM, MBP substrate, read-out: RIPK2 IC50
Sequence (O43353 1-299 limits assumed): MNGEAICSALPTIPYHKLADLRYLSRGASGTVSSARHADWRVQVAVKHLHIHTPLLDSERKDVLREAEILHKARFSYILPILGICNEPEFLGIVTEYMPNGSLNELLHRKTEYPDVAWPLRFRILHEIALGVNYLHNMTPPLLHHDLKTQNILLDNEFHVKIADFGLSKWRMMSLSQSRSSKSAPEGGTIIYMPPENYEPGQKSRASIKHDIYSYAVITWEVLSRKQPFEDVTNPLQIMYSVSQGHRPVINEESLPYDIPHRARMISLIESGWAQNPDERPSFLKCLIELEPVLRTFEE
pIC50: −log10 of the molar value.
Entries annotated with measured pIC50
metric: pIC50

> print(dat)
                                    compound     val
 1  CN(C)C1CCN(c2ccc3nccc(Oc4cnc(CC(=O)Nc5cnn(C(C)(C)C)c5)c(F)c4)c3c2)C1 (single isomer, unassigned) [Compound 140]    8.13
 2  CC(C)(C)n1cc(NC(=O)Cc2ccc(Oc3ccnc4ccc(S(=O)(=O)N5CCNCC5)cc34)cc2F)cn1  > 8.60
 3  Cc1cc(CC(=O)Nc2cnn(C(C)(C)C)c2)ccc1Oc1ccnc2ccc(C3(C(N)=O)CCC3)cc12  > 8.60
 4  Cc1cc(CC(=O)Nc2cnn(C(C)(C)C)c2)cc(C)c1Oc1ccnc2ccc(C(N)=O)cc12  > 8.60
 5  Cc1cc(CC(=O)Nc2cnn(C(C)(C)C)c2)c(F)cc1Oc1ccnc2ccc(C(=O)N3[C@H](C)CCC[C@@H]3C)cc12  > 8.60
 6  Cc1cc(CC(=O)Nc2cnn(C(C)(C)C)c2)c(F)cc1Oc1ccnc2ccc(C(=O)N3CCC(O)C3)cc12 (single isomer, unassigned) [Compound 376]  > 8.60
 7  Cc1cc(CC(=O)Nc2cnn(C(C)(C)C)c2)c(F)cc1Oc1ccnc2ccc(C(=O)N(CCO)CCO)cc12  > 8.60
 8  Cc1cc(CC(=O)Nc2cnn(C(C)(C)C)c2)ccc1Oc1ccnc2ccc(N3CCC(F)(F)C3=O)cc12  > 8.60
 9  [2H]C([2H])([2H])S(=O)(=O)c1ccc2nccc(Oc3ccc(CC(=O)Nc4cnn(C(C)(C)C)c4)cc3C)c2c1  > 8.60
10  Cc1cc(CC(=O)Nc2cnn(C(C)(C)C)c2)ccc1Oc1ccnc2ccc(S(=N)(=O)C(C)C)cc12 (single isomer, unassigned) [Compound 547]  > 8.60
11  Cc1cc(CC(=O)Nc2cnn(C(C)(C)C)c2)ccc1Oc1ccnc2ccc(C(C)(O)C(N)=O)cc12 (single isomer, unassigned) [Compound 616]  > 8.60
12  Cc1c(Oc2ncnc3ccc(OC4CCNCC4)cc23)ccc(CC(=O)Nc2cnn(C(C)(C)C)c2)c1F  > 8.60
13  CC(C)(C)c1cc(NC(=O)Cc2ncc(Oc3ccnc4ccc(OC5CCNCC5)cc34)cc2F)n[nH]1  > 8.60
14  Cc1cc(CC(=O)Nc2cnn(C(C)(C)C)c2)ccc1Oc1ccnc2ccc(OC3CCN(CC(F)(F)F)CC3)cc12  > 8.60
15  Cc1cc(CC(=O)Nc2cnn(C(C)(C)C)c2)c(F)cc1Oc1ccnc2ccc(C(=O)NC3CC(F)(F)C3)cc12  > 8.60
16  Cc1cc(CC(=O)Nc2nnc(C(C)(C)C)o2)ccc1Oc1ccnc2ccc(S(C)(=O)=O)cc12  > 8.60
17  [2H]C([2H])([2H])NC(=O)c1ccc2nccc(Oc3cc(F)c(CC(=O)Nc4cnn(C(C)(C)C)c4)cc3C)c2c1  > 8.60
18  Cc1cc(CC(=O)Nc2cnn(C(C)(C)C)c2)c(F)cc1Oc1ccnc2ccc(-c3nc[nH]n3)cc12  > 8.60
19  [2H]C([2H])([2H])c1cc(CC(=O)Nc2cnn(C(C)(C)C)c2)ccc1Oc1ccnc2ccc(S(=O)(=O)C([2H])([2H])[2H])cc12  > 8.60
20  Cc1cc(CC(=O)Nc2cnn(C(C)(C)C)c2)c(F)cc1Oc1ccnc2ccc(C(=O)NC3CC3)cc12  > 8.60
21  CN1CCN(S(=O)(=O)c2ccc3nccc(Oc4ccc(CC(=O)Nc5cnn(C(C)(C)C)c5)c(F)c4)c3c2)CC1  > 8.60
22  Cc1c(Oc2ccnc3ccc(S(=N)(=O)C4CC4)cc23)ccc(CC(=O)Nc2cnn(C34CC(C3)C4)c2)c1F (single isomer, unassigned) [Compound 527]  > 8.60
23  Cc1cc(CC(=O)Nc2cnn(C(C)(C)C)c2)ccc1Oc1ccnc2ccc(S(=O)(=O)N3CCC3)cc12  > 8.60
24  Cc1c(Oc2ccnc3ccc(S(C)(=O)=O)cc23)ccc(CC(=O)Nc2cc(C(C)(C)C)n[nH]2)c1F  > 8.60
25  Cc1cc(CC(=O)Nc2cnn(C(C)(C)C)c2)ccc1Oc1ccnc2cc(F)c(C(N)=O)cc12  > 8.60
26  Cc1cc(CC(=O)Nc2cnn(C(C)(C)C)c2)ccc1Oc1ccnc2ccc(S(=O)(=O)C3CCC3)cc12  > 8.60
27  Cc1cc(CC(=O)Nc2cnn(C(C)(C)C)c2)ccc1Oc1ccnc2ccc(S(=O)(=O)C3CCNCC3)cc12  > 8.60

Origin of the recorded values: patent US12624018B1
